- TEST_TARGET: Transcriptional enhancer factor TEF-3 [217-434] (Homo sapiens, UniProt Q15561)
- Sequence (Q15561 217-434): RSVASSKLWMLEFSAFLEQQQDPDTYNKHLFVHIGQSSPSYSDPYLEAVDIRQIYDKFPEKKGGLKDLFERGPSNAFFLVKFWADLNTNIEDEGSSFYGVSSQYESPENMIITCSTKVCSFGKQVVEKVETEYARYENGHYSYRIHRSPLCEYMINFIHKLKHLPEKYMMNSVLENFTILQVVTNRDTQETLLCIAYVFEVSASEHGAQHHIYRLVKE
PARAMETER_MEASURED: IC50

Transcriptional enhancer factor TEF-3 [217-434] (Homo sapiens, UniProt Q15561) IC50 of C=CC(=O)N1C[C@H](C#N)[C@H](Nc2nnc(-c3ccc(C(F)(F)F)cc3)c3ccccc23)C1 (single isomer, unassigned) [US20240116926, Example 29] is 130 nM
